The values you see were collected from the supplement of paper PMC10307832.

- Test system: NCI-H1993
- measurement-description: relative viability (nuclei count vs DMSO), 5 days (fraction); higher = more cells survive
- experimental-conditions: first compound 0.005 µM
metric: relative viability
Answer field: number only, no words.

Data request, read-out relative viability, for CC1(C)CCC(c2ccc(Cl)cc2)=C(CN2CCN(c3ccc(C(=O)NS(=O)(=O)c4ccc(N[C@H](CCN5CCOCC5)CSc5ccccc5)c(S(=O)(=O)C(F)(F)F)c4)cc3)CC2)C1 [Navitoclax] + O=C(c1cc(Cc2n[nH]c(=O)c3ccccc23)ccc1F)N1CCN(C(=O)C2CC2)CC1 [Olaparib] (partner 8 µM)
1.09

Request: CC1(C)CCC(c2ccc(Cl)cc2)=C(CN2CCN(c3ccc(C(=O)NS(=O)(=O)c4ccc(N[C@H](CCN5CCOCC5)CSc5ccccc5)c(S(=O)(=O)C(F)(F)F)c4)cc3)CC2)C1 [Navitoclax] + COc1cccc2cc(-c3nc([C@H]4CC[C@H](C(=O)O)CC4)n4ncnc(N)c34)[nH]c12 [OSI-027] (partner 0.5 µM)
0.566

Request: CC1(C)CCC(c2ccc(Cl)cc2)=C(CN2CCN(c3ccc(C(=O)NS(=O)(=O)c4ccc(N[C@H](CCN5CCOCC5)CSc5ccccc5)c(S(=O)(=O)C(F)(F)F)c4)cc3)CC2)C1 [Navitoclax] + CS(=O)(=O)CCNCc1ccc(-c2ccc3ncnc(Nc4ccc(OCc5cccc(F)c5)c(Cl)c4)c3c2)o1 [Lapatinib] (partner 2 µM)
0.849

----------
- Test system: NCI-H441
- measurement-description: relative viability (nuclei count vs DMSO), 5 days (fraction); higher = more cells survive
- experimental-conditions: first compound 0.08 µM
metric: relative viability
Answer field: number only, no words.

Data request, read-out relative viability, for C=C1C(=O)O[C@@H](CCCCCCCC)[C@@H]1C(=O)O [C-75] + Nc1nc2[nH]cc(CCc3ccc(C(=O)N[C@@H](CCC(=O)O)C(=O)O)cc3)c2c(=O)[nH]1 [Pemetrexed] (partner 0.2 µM)
0.295

Request: C=C1C(=O)O[C@@H](CCCCCCCC)[C@@H]1C(=O)O [C-75] + CCNC(=O)c1noc(-c2cc(C(C)C)c(O)cc2O)c1-c1ccc(CN2CCOCC2)cc1 [Luminespib] (partner 0.01 µM)
0.329

Request: Oc1nc(-c2ccc(C(F)(F)F)cc2)nc2c1CSCC2 [XAV939] + CC(=O)c1c(C)c2cnc(Nc3ccc(N4CCNCC4)cn3)nc2n(C2CCCC2)c1=O [Palbociclib] (partner 0.5 µM)
0.222

Request: C=C1C(=O)O[C@@H](CCCCCCCC)[C@@H]1C(=O)O [C-75] + CC1(C)CCC(c2ccc(Cl)cc2)=C(CN2CCN(c3ccc(C(=O)NS(=O)(=O)c4ccc(N[C@H](CCN5CCOCC5)CSc5ccccc5)c(S(=O)(=O)C(F)(F)F)c4)cc3)CC2)C1 [Navitoclax] (partner 0.5 µM)
0.566

Request: Oc1nc(-c2ccc(C(F)(F)F)cc2)nc2c1CSCC2 [XAV939] + C[C@@H](Oc1cc(-c2cnn(C3CCNCC3)c2)cnc1N)c1c(Cl)ccc(F)c1Cl [Crizotinib] (partner 1 µM)
0.986

Request: C=C1C(=O)O[C@@H](CCCCCCCC)[C@@H]1C(=O)O [C-75] + COc1cc2c(Oc3ccc(NC(=O)C4(C(=O)Nc5ccc(F)cc5)CC4)cc3F)ccnc2cc1OCCCN1CCOCC1 [Foretinib] (partner 0.25 µM)
1.01

Request: C=C1C(=O)O[C@@H](CCCCCCCC)[C@@H]1C(=O)O [C-75] + COc1cccc2cc(-c3nc([C@H]4CC[C@H](C(=O)O)CC4)n4ncnc(N)c34)[nH]c12 [OSI-027] (partner 0.5 µM)
0.512

Request: Oc1nc(-c2ccc(C(F)(F)F)cc2)nc2c1CSCC2 [XAV939] + Cc1nc(NC(=O)N2CCC[C@H]2C(N)=O)sc1-c1ccnc(C(C)(C)C(F)(F)F)c1 [Alpelisib] (partner 2 µM)
0.687

Request: Oc1nc(-c2ccc(C(F)(F)F)cc2)nc2c1CSCC2 [XAV939] + O=C(CCCCCCC(=O)Nc1ccccc1)NO [Vorinostat] (partner 1 µM)
1.02

----------
- Test system: BEN
- measurement-description: relative viability (nuclei count vs DMSO), 5 days (fraction); higher = more cells survive
- experimental-conditions: first compound 0.253 µM
Hi there, I'd appreciate the recorded relative viability for every entry that follows.
Answer field: number only, no words.

Data request, read-out relative viability, for Oc1nc(-c2ccc(C(F)(F)F)cc2)nc2c1CSCC2 [XAV939] + CC(=O)c1c(C)c2cnc(Nc3ccc(N4CCNCC4)cn3)nc2n(C2CCCC2)c1=O [Palbociclib] (partner 0.5 µM)
0.438

Request: C=C1C(=O)O[C@@H](CCCCCCCC)[C@@H]1C(=O)O [C-75] + CC(=O)Nc1cccc(-n2c(=O)n(C3CC3)c(=O)c3c(Nc4ccc(I)cc4F)n(C)c(=O)c(C)c32)c1 [Trametinib] (partner 0.02 µM)
1.2

Request: C=C1C(=O)O[C@@H](CCCCCCCC)[C@@H]1C(=O)O [C-75] + C[C@@H](Oc1cc(-c2cnn(C3CCNCC3)c2)cnc1N)c1c(Cl)ccc(F)c1Cl [Crizotinib] (partner 1 µM)
0.952

Request: C=C1C(=O)O[C@@H](CCCCCCCC)[C@@H]1C(=O)O [C-75] + NC(=O)Nc1cc(-c2cccc(F)c2)sc1C(=O)N[C@H]1CCCNC1 [AZD7762] (partner 0.2 µM)
0.729

Request: Oc1nc(-c2ccc(C(F)(F)F)cc2)nc2c1CSCC2 [XAV939] + NC(=O)Nc1cc(-c2cccc(F)c2)sc1C(=O)N[C@H]1CCCNC1 [AZD7762] (partner 0.2 µM)
0.651

Request: Oc1nc(-c2ccc(C(F)(F)F)cc2)nc2c1CSCC2 [XAV939] + COc1cc2c(Oc3ccc(NC(=O)C4(C(=O)Nc5ccc(F)cc5)CC4)cc3F)ccnc2cc1OCCCN1CCOCC1 [Foretinib] (partner 0.25 µM)
0.631

Request: Oc1nc(-c2ccc(C(F)(F)F)cc2)nc2c1CSCC2 [XAV939] + Cc1cc(Nc2cc(N3CCN(C)CC3)nc(Sc3ccc(NC(=O)C4CC4)cc3)n2)n[nH]1 [Tozasertib] (partner 0.1 µM)
0.451

----------
- Test system: HOP-62
- measurement-description: relative viability (nuclei count vs DMSO), 5 days (fraction); higher = more cells survive
- experimental-conditions: first compound 0.01 µM
metric: relative viability
Answer field: number only, no words.

Data request, read-out relative viability, for NC(=O)Nc1cc(-c2cccc(F)c2)sc1C(=O)N[C@H]1CCCNC1 [AZD7762] + Nc1nc2[nH]cc(CCc3ccc(C(=O)N[C@@H](CCC(=O)O)C(=O)O)cc3)c2c(=O)[nH]1 [Pemetrexed] (partner 0.2 µM)
0.359

Request: NC(=O)Nc1cc(-c2cccc(F)c2)sc1C(=O)N[C@H]1CCCNC1 [AZD7762] + Cc1nc(Nc2ncc(C(=O)Nc3c(C)cccc3Cl)s2)cc(N2CCN(CCO)CC2)n1 [Dasatinib] (partner 0.075 µM)
0.727

Request: NC(=O)Nc1cc(-c2cccc(F)c2)sc1C(=O)N[C@H]1CCCNC1 [AZD7762] + O=C(c1cc(Cc2n[nH]c(=O)c3ccccc23)ccc1F)N1CCN(C(=O)C2CC2)CC1 [Olaparib] (partner 8 µM)
0.541

Request: NC(=O)Nc1cc(-c2cccc(F)c2)sc1C(=O)N[C@H]1CCCNC1 [AZD7762] + COc1cc2c(Oc3ccc(NC(=O)C4(C(=O)Nc5ccc(F)cc5)CC4)cc3F)ccnc2cc1OCCCN1CCOCC1 [Foretinib] (partner 0.25 µM)
1.17

----------
- Tested on: HCC-366
- measurement-description: relative viability (nuclei count vs DMSO), 5 days (fraction); higher = more cells survive
- experimental-conditions: first compound 0.08 µM
Hi there, I'd appreciate the recorded relative viability for every entry that follows.
Answer field: number only, no words.

Data request, read-out relative viability, for C=C1C(=O)O[C@@H](CCCCCCCC)[C@@H]1C(=O)O [C-75] + CC(=O)c1c(C)c2cnc(Nc3ccc(N4CCNCC4)cn3)nc2n(C2CCCC2)c1=O [Palbociclib] (partner 0.5 µM)
0.363

Request: C=C1C(=O)O[C@@H](CCCCCCCC)[C@@H]1C(=O)O [C-75] + Nc1nc2[nH]cc(CCc3ccc(C(=O)N[C@@H](CCC(=O)O)C(=O)O)cc3)c2c(=O)[nH]1 [Pemetrexed] (partner 0.2 µM)
0.156

Request: Oc1nc(-c2ccc(C(F)(F)F)cc2)nc2c1CSCC2 [XAV939] + CC1(C)CCC(c2ccc(Cl)cc2)=C(CN2CCN(c3ccc(C(=O)NS(=O)(=O)c4ccc(N[C@H](CCN5CCOCC5)CSc5ccccc5)c(S(=O)(=O)C(F)(F)F)c4)cc3)CC2)C1 [Navitoclax] (partner 0.5 µM)
1.12

Request: C=C1C(=O)O[C@@H](CCCCCCCC)[C@@H]1C(=O)O [C-75] + CC(=O)Nc1cccc(-n2c(=O)n(C3CC3)c(=O)c3c(Nc4ccc(I)cc4F)n(C)c(=O)c(C)c32)c1 [Trametinib] (partner 0.02 µM)
0.356
